# System: RS11846 cell line
# PROCEDURE_SUMMARY: Apoptosis, Annexin V and propidium iodide assay
# Type: cell-based, human
# MEASUREMENT_SETUP: read-out: RS11846 EC50 (Annexin V- and propidium iodide assay); 1-2 days
READOUT_TYPE: EC50

Which EC50 value is on record for Cc1ccc(CC(=O)c2c(O)c(O)cc3c(O)c(-c4c(C)cc5c(C(=O)Cc6ccc(C)cc6)c(O)c(O)cc5c4O)c(C)cc23)cc1 ? 3000 nM

====

# PROCEDURE_SUMMARY: PAMPA (parallel artificial membrane permeation assay)
# MEASUREMENT_SETUP: PAMPA, pH 7.2, 8 h
READOUT_TYPE: Cell Permeability

{"MOLECULE": "Cc1cc2c(C(=O)c3cccc4ccccc34)c(O)c(O)cc2c(O)c1-c1c(C)cc2c(C(=O)c3cccc4ccccc34)c(O)c(O)cc2c1O [Compound VIII]", "READOUT_TYPE": "Cell Permeability", "TEST_VALUE": "Low"}
{"MOLECULE": "Cc1cc2c(C(=O)C3CCCC3)c(O)c(O)cc2c(O)c1-c1c(C)cc2c(C(=O)C3CCCC3)c(O)c(O)cc2c1O [Compound VI]", "READOUT_TYPE": "Cell Permeability", "TEST_VALUE": "Low"}

====

# PROCEDURE_SUMMARY: Liver microsomal stability
# MEASUREMENT_SETUP: rat liver microsomes, 4 μM, 60 min
// reported Microsomal Stability (T = 1 hr) for each item listed
The figure you give is taken to be in %; do not add the unit.

Below are worked cases with known answers.
{"STRUCTURE_SMILES_STRING": "Cc1cc2c(C(C)C)c(O)c(O)cc2c(O)c1-c1c(C)cc2c(C(C)C)c(O)c(O)cc2c1O", "TEST_VALUE": 60}
{"STRUCTURE_SMILES_STRING": "Cc1cc2c(C(=O)Cc3ccccc3)c(O)c(O)cc2c(O)c1-c1c(C)cc2c(C(=O)Cc3ccccc3)c(O)c(O)cc2c1O", "TEST_VALUE": 64}
{"STRUCTURE_SMILES_STRING": "Cc1cc2c(C(=O)c3nc4ccccc4s3)c(O)c(O)cc2c(O)c1-c1c(C)cc2c(C(=O)c3nc4ccccc4s3)c(O)c(O)cc2c1O", "TEST_VALUE": 68}
{"STRUCTURE_SMILES_STRING": "Cc1cc2c(C(=O)C(C)(C)C)c(O)c(O)cc2c(O)c1-c1c(C)cc2c(C(=O)C(C)(C)C)c(O)c(O)cc2c1O", "TEST_VALUE": 30}
{"STRUCTURE_SMILES_STRING": "Cc1cc2c(C(=O)c3cccc4ccccc34)c(O)c(O)cc2c(O)c1-c1c(C)cc2c(C(=O)c3cccc4ccccc34)c(O)c(O)cc2c1O", "TEST_VALUE": 52}

Switching to the query record.
Which Microsomal Stability (T = 1 hr) value is on record for Cc1cc2c(C(=O)C3CCCC3)c(O)c(O)cc2c(O)c1-c1c(C)cc2c(C(=O)C3CCCC3)c(O)c(O)cc2c1O ? 27

====

// reported pEC50 for each item listed
# MEASURED_TARGET: GST-Mcl-1 (Homo sapiens (Human), UniProt Q07820)
# Sequence (Q07820 whole entry): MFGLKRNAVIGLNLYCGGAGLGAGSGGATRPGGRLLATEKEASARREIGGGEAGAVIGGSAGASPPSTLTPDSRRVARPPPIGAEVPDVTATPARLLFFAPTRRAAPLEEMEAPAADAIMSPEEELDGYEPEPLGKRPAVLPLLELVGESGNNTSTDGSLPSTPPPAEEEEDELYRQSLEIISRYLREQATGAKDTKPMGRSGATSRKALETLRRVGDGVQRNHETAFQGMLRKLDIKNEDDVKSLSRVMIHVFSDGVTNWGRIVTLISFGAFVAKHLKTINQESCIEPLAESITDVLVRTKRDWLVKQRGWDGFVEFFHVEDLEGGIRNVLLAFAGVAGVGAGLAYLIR
# PROCEDURE_SUMMARY: Fluorescence polarization assay (FITC-Bim BH3 peptide)
# MEASUREMENT_SETUP: read-out: EC50 FPA Mcl-1
Entry type: numeric. Quantity: pEC50, the -log10 of concentration in molar units.

Below are worked cases with known answers.
{"STRUCTURE_SMILES_STRING": "Cc1cc2c(C(=O)c3cccc4ccccc34)c(O)c(O)cc2c(O)c1-c1c(C)cc2c(C(=O)c3cccc4ccccc34)c(O)c(O)cc2c1O", "pEC50": 5.66}
{"STRUCTURE_SMILES_STRING": "Cc1ccc(CC(=O)c2c(O)c(O)cc3c(O)c(-c4c(C)cc5c(C(=O)Cc6ccc(C)cc6)c(O)c(O)cc5c4O)c(C)cc23)cc1", "pEC50": 5.96}

Which pEC50 value is on record for Cc1cc2c(C(=O)Cc3ccccc3)c(O)c(O)cc2c(O)c1-c1c(C)cc2c(C(=O)Cc3ccccc3)c(O)c(O)cc2c1O ? 6.28

====

# PROCEDURE_SUMMARY: PAMPA (parallel artificial membrane permeation assay)
# MEASUREMENT_SETUP: PAMPA, pH 7.2, 8 h

{"COMPOUND": "Cc1cc2c(C(C)C)c(O)c(O)cc2c(O)c1-c1c(C)cc2c(C(C)C)c(O)c(O)cc2c1O [Apogossypol, apogossypol]", "Cell Permeability": "Low"}
{"COMPOUND": "Cc1cc2c(C(=O)c3nc4ccccc4s3)c(O)c(O)cc2c(O)c1-c1c(C)cc2c(C(=O)c3nc4ccccc4s3)c(O)c(O)cc2c1O [Compound XVII]", "Cell Permeability": "Medium"}
{"COMPOUND": "Cc1cc2c(C(=O)Cc3ccccc3)c(O)c(O)cc2c(O)c1-c1c(C)cc2c(C(=O)Cc3ccccc3)c(O)c(O)cc2c1O [Compound I]", "Cell Permeability": "Medium"}

====

# MEASURED_TARGET: BCL-XL (Homo sapiens (Human))
# Sequence (Q07817 whole entry): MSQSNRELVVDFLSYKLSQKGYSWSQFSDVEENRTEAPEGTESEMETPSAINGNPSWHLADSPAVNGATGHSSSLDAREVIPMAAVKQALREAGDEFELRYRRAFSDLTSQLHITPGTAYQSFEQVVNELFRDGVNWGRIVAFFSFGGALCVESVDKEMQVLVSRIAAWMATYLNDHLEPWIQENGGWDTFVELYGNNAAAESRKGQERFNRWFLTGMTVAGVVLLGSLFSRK
# PROCEDURE_SUMMARY: 1D 1H-NMR binding assay; further: key: +++: Very Active; ++: Active; +: Mild; −: Weak
# MEASUREMENT_SETUP: 4-point-rating scale; compounds 200 μM, BCL-XL 25 μM
READOUT_TYPE: 1D 1H-NMR Binding Assay (BCL-XL)

Below are worked cases with known answers.
{"COMPOUND": "Cc1cc2c(C(=O)CCc3ccc(F)cc3)c(O)c(O)cc2c(O)c1-c1c(C)cc2c(C(=O)CCc3ccc(F)cc3)c(O)c(O)cc2c1O [Compound XVI]", "MEASURED_TARGET": "BCL-XL (Homo sapiens (Human))", "1D 1H-NMR Binding Assay (BCL-XL)": "+"}
{"COMPOUND": "Cc1cc2c(C(C)C)c(O)c(O)c(C=O)c2c(O)c1-c1c(C)cc2c(C(C)C)c(O)c(O)c(C=O)c2c1O [Gossypol, gossypol]", "MEASURED_TARGET": "BCL-XL (Homo sapiens (Human))", "1D 1H-NMR Binding Assay (BCL-XL)": "++"}
{"COMPOUND": "Cc1cc2c(C(=O)C(C)(C)C)c(O)c(O)cc2c(O)c1-c1c(C)cc2c(C(=O)C(C)(C)C)c(O)c(O)cc2c1O [Compound XVIII]", "MEASURED_TARGET": "BCL-XL (Homo sapiens (Human))", "1D 1H-NMR Binding Assay (BCL-XL)": "++"}
{"COMPOUND": "CCCCC(CC)CC(=O)c1c(O)c(O)cc2c(O)c(-c3c(C)cc4c(C(=O)CC(CC)CCCC)c(O)c(O)cc4c3O)c(C)cc12 (centres unmarked) [Compound V]", "MEASURED_TARGET": "BCL-XL (Homo sapiens (Human))", "1D 1H-NMR Binding Assay (BCL-XL)": "+"}
{"COMPOUND": "Cc1cc2c(C(=O)Cc3ccccc3)c(O)c(O)cc2c(O)c1-c1c(C)cc2c(C(=O)Cc3ccccc3)c(O)c(O)cc2c1O [Compound I]", "MEASURED_TARGET": "BCL-XL (Homo sapiens (Human))", "1D 1H-NMR Binding Assay (BCL-XL)": "+++"}

What value of 1D 1H-NMR Binding Assay (BCL-XL) on BCL-XL (Homo sapiens (Human)) does CCCCC(=O)c1c(O)c(O)cc2c(O)c(-c3c(C)cc4c(C(=O)CCCC)c(O)c(O)cc4c3O)c(C)cc12 [Compound XX] have? +

What value of 1D 1H-NMR Binding Assay (BCL-XL) on BCL-XL (Homo sapiens (Human)) does Cc1cc2c(C(=O)CC3CCCCC3)c(O)c(O)cc2c(O)c1-c1c(C)cc2c(C(=O)CC3CCCCC3)c(O)c(O)cc2c1O [Compound XV] have? ++

What value of 1D 1H-NMR Binding Assay (BCL-XL) on BCL-XL (Homo sapiens (Human)) does Cc1cc2c(C(=O)Cc3cccc(Br)c3)c(O)c(O)cc2c(O)c1-c1c(C)cc2c(C(=O)Cc3cccc(Br)c3)c(O)c(O)cc2c1O [Compound XIII] have? ++

What value of 1D 1H-NMR Binding Assay (BCL-XL) on BCL-XL (Homo sapiens (Human)) does Cc1cc2c(C(=O)c3ccccc3)c(O)c(O)cc2c(O)c1-c1c(C)cc2c(C(=O)c3ccccc3)c(O)c(O)cc2c1O [Compound VII] have? +

What value of 1D 1H-NMR Binding Assay (BCL-XL) on BCL-XL (Homo sapiens (Human)) does Cc1cc2c(C(=O)c3nc4ccccc4s3)c(O)c(O)cc2c(O)c1-c1c(C)cc2c(C(=O)c3nc4ccccc4s3)c(O)c(O)cc2c1O [Compound XVII] have? ++
